target: recombinant DYRK1A kinase (Homo sapiens (Human)); assay: DYRK1A kinase assay (Ser/Thr 18 peptide Z-lyte FRET assay); assay type: biochemical; settings: DYRK1A 0.25 μg/mL, ATP 15 μM, Ser/Thr peptide 18 4 μM; one hour at room temperature; 11-point dose-response, duplicate
Answer each item with its documented pIC50.
Would you please state pIC50, meaning minus log10 of the concentration in mol/L, as a bare number?

Entry CCN1CC[C@H](Nc2nc(NC)c3c(-c4ccc5nc(C)n(CC(F)F)c5n4)ccn3n2)C(F)(F)C1 , tested on recombinant DYRK1A kinase (Homo sapiens (Human)), has a reported pIC50 of 8.70

Entry CNc1nc(NC23CC4CC(CC(C4)C2)C3)nn2ccc(-c3ccc4nc(C)n(CC(F)F)c4n3)c12 , tested on recombinant DYRK1A kinase (Homo sapiens (Human)), has a reported pIC50 of 6.23

Entry CNc1nc(N[C@H]2CC[C@](C)(O)CC2)nn2ccc(-c3ccc4nc(C)n(C(C)C)c4n3)c12 , tested on recombinant DYRK1A kinase (Homo sapiens (Human)), has a reported pIC50 of 8.77

Entry CNc1nc(N[C@H]2CC[C@](C)(O)CC2)nn2ccc(-c3ccn4nccc4n3)c12 , tested on recombinant DYRK1A kinase (Homo sapiens (Human)), has a reported pIC50 of 8.60

---

biological target: recombinant DYRK1A kinase (Homo sapiens (Human), UniProt Q13627); assay: DYRK1A kinase assay (Ser/Thr 18 peptide Z-lyte FRET assay); settings: DYRK1A 0.25 μg/mL, ATP 15 μM, Ser/Thr peptide 18 4 μM; one hour at room temperature; 11-point dose-response, duplicate
measurement.name: IC50 (nM)
Please reply with the bare figure in nM and do not write the unit itself.

Reported IC50 of CC(=O)N1C[C@H](F)[C@H](Nc2nc(N)c3c(-c4ccc5nc(C)n(CC(F)(F)F)c5n4)ccn3n2)C1 [Compound 762] : 1.5

Reported IC50 of CNc1nc(N[C@@H]2CCN(C(C)=O)CC2(F)F)nn2ccc(-c3ccc4ncn(CC(F)F)c4n3)c12 [Compound 1010] : 0.5

Reported IC50 of CCN1C[C@H](Nc2nc(NC)c3c(-c4ccc5nc(C)n(CC(F)F)c5n4)ccn3n2)C(F)(F)C1 [Compound 365] : 6.3

Reported IC50 of CNc1nc(NC2CCN(CC(F)(F)F)CC2)nn2ccc(-c3ccc4nc(C)n(CC(F)F)c4n3)c12 [Compound 370] : 15.5

Reported IC50 of CNc1nc(NC2CCC(F)(F)CC2)nn2ccc(-c3ccc4nnn(CC(F)F)c4n3)c12 [Compound 1025] : 10.1

Reported IC50 of CNc1nc(N[C@H]2CC[C@](C)(O)CC2)nn2ccc(-c3ccc4nnn(CC(F)F)c4n3)c12 [Compound 465] : 1.4

Reported IC50 of CNc1nc(N[C@@H]2CCN(C)CC2(F)F)nn2ccc(-c3ccc4ncn(CC(F)(F)F)c4n3)c12 [Compound 1017] : 1.7

Reported IC50 of CNc1nc(N[C@@H]2CCN(C(C)=O)CC2(F)F)nn2ccc(-c3ccc4ncn(CC(F)(F)F)c4n3)c12 [Compound 1018] : 1.6

Reported IC50 of CNc1nc(N[C@@H]2[C@@H]3CNC[C@@H]32)nn2ccc(-c3ccc4nc(C)n(CC(F)F)c4n3)c12 [Compound 219] : 6.7

Reported IC50 of CNc1nc(N[C@H]2CCN(C(C)=O)C[C@H]2F)nn2ccc(-c3ccc4nc(C)n(CCF)c4n3)c12 [Compound 1020] : 2.1

Reported IC50 of CNc1nc(N[C@H]2CCN(C3COC3)CC2(F)F)nn2ccc(-c3ccc4nc(C)n(CC(F)F)c4n3)c12 [Compound 217] : 1.7

Reported IC50 of Nc1nc(N[C@H]2CC[C@@H](OC(F)F)CC2)nn2ccc(-c3ccc4nnn(CC(F)F)c4n3)c12 [Compound 1000] : 5.1

Reported IC50 of CNc1nc(NC2CC3(CCN(C(C)=O)CC3)C2)nn2ccc(-c3ccc4nc(C)n(CC(F)F)c4n3)c12 [Compound 223] : 1.1

Reported IC50 of CNc1nc(N[C@H]2C[C@](C)(O)C2)nn2ccc(-c3cnc4nc(C)n(CC(F)F)c4c3)c12 [Compound 170] : 4.8

Reported IC50 of CNc1nc(N[C@H]2CCN(C(C)=O)C[C@H]2F)nn2ccc(-c3ccc4ncn(CC(F)(F)F)c4n3)c12 [Compound 1015] : 1.4

---

Target: recombinant DYRK1A kinase (Homo sapiens (Human), UniProt Q13627)
Assay: DYRK1A kinase assay (Ser/Thr 18 peptide Z-lyte FRET assay)
Settings: DYRK1A 0.25 μg/mL, ATP 15 μM, Ser/Thr peptide 18 4 μM; one hour at room temperature; 11-point dose-response, duplicate
Experimental: Representative compounds were screened using the assay procedure for DYRK1A kinase activity as described below. Each compound was dissolved in DMSO as a 10 mM stock and used to prepare compound source plates. This is a non-radioactive assay using fluorescence resonance energy transfer (FRET) between coumarin and fluorescein to detect kinase activity which is represented as a ratio of coumarin emission/fluorescein emission. […]
measurement.name: log10 of IC50 (log10 of the value in nM)
// units: nM (pre-log); metric: IC50; scale: log10

Reported log10 of IC50 of CNc1nc(N[C@H]2CCN(CCF)C[C@H]2F)nn2ccc(-c3ccc4nc(C)n(CC(F)F)c4n3)c12 : -0.22

Reported log10 of IC50 of CNc1nc(NC2CCC(F)(F)CC2)nn2ccc(-c3ccc4nc(C)n(CC(F)F)c4n3)c12 : 1.08

Reported log10 of IC50 of Cc1nc2ccc(-c3ccn4nc(N[C@@H]5CN(C6COC6)C[C@@H]5F)nc(N)c34)nc2n1CC(F)F : 0.00

Reported log10 of IC50 of CNc1nc(N[C@@H]2CN(C3COC3)C[C@@H]2F)nn2ccc(-c3ccc4nc(C)n(CC(F)F)c4n3)c12 : 0.11

Reported log10 of IC50 of CN1CC[C@@H](Nc2nc(N)c3c(-c4ccc5nnn(CC(F)F)c5n4)ccn3n2)C(F)(F)C1 : -0.22

Reported log10 of IC50 of Cc1nc2ccc(-c3ccn4nc(N[C@H]5CC[C@](C)(O)CC5)nc(N)c34)nc2n1CCF : -0.10

Reported log10 of IC50 of CNc1nc(N[C@H]2CC[C@@H](NC(C)=O)CC2)nn2ccc(-c3ccc4nc(C)n(CC(F)F)c4n3)c12 : 0.18

---

molecular target: recombinant DYRK1A kinase (Homo sapiens (Human), UniProt Q13627); test: DYRK1A kinase assay (Ser/Thr 18 peptide Z-lyte FRET assay); conditions: DYRK1A 0.25 μg/mL, ATP 15 μM, Ser/Thr peptide 18 4 μM; one hour at room temperature; 11-point dose-response, duplicate
Answer each item with its documented IC50.
Please reply with the bare figure in nM and do not write the unit itself.

Reported IC50 of CNc1nc(NC2CCN(CCF)CC2)nn2ccc(-c3ccc4nc(C)n(CC(F)F)c4n3)c12 : 2.9

Reported IC50 of CNc1nc(N[C@@H]2CCN(C3CC3)CC2(F)F)nn2ccc(-c3ccc4nc(C)n(CC(F)F)c4n3)c12 : 4.6

Reported IC50 of CNc1nc(NC2CCN(C3CC(F)(F)C3)CC2)nn2ccc(-c3ccc4nc(C)n(CC(F)F)c4n3)c12 : 2.2

Reported IC50 of Cc1nc2ccc(-c3ccn4nc(N[C@H]5CCN(C6COC6)C[C@H]5F)nc(N)c34)nc2n1CC(F)(F)F : 1.2

Reported IC50 of CNc1nc(N[C@@H]2CCN(C3CC3)C[C@@H]2F)nn2ccc(-c3ccc4nc(C)n(CC(F)F)c4n3)c12 : 3.6

Reported IC50 of CNc1nc(NC2CCN(C3COC3)CC2)nn2ccc(-c3ccc4nc(C)n(CC(F)F)c4n3)c12 : 2

Reported IC50 of CNc1nc(N[C@H]2C[C@@H](OCCO)C2)nn2ccc(-c3ccc4nc(C)n(CC(F)F)c4n3)c12 : 0.9

Reported IC50 of CNc1nc(N[C@H]2CCN(C3COC3)C[C@H]2F)nn2ccc(-c3ccc4ncn(CCF)c4n3)c12 : 1.1

Reported IC50 of CNc1nc(N[C@H]2C[C@@](C)(O)C2)nn2ccc(-c3ccc4nc(C)n(CC(F)F)c4n3)c12 : 1.7

Reported IC50 of CNc1nc(NC2CCC(F)(F)CC2)nn2ccc(-c3ccc4ncn(CC(F)F)c4n3)c12 : 4.1

Reported IC50 of CNc1nc(N[C@H]2CC[C@](C)(O)CC2)nn2ccc(-c3ccc4nccn4c3)c12 : 170

Reported IC50 of CNc1nc(N[C@H]2[C@@H]3COC[C@@H]32)nn2ccc(-c3ccc4nc(C)n(CC(F)F)c4n3)c12 : 1.6

Reported IC50 of CNc1nc(N[C@@H]2CCN(C3COC3)CC2(F)F)nn2ccc(-c3ccc4nnn(CC(F)(F)F)c4n3)c12 : 1

Reported IC50 of CN1CC[C@@H](Nc2nc(N)c3c(-c4ccc5ncn(CC(F)F)c5n4)ccn3n2)C(F)(F)C1 : 0.4

Reported IC50 of CNc1nc(N[C@H]2CN(C)CC2(F)F)nn2ccc(-c3ccc4nc(C)n(CC(F)F)c4n3)c12 : 2.1
